Where do these numbers come from? They come from the supplement of paper PMC11451515.

tested on: SEM cells; assay: cell viability relative to DMSO control; higher = less cytotoxic; conditions: RPMI 5 mM glucose + 10% dialyzed FBS; 48 h; 46.1 µM
measured_attribute: cell viability (%)
Give bare numbers, in %.

Worked set:
compound	measured_attribute	unit_of_measurement	quantitative_readout
O=C(c1ccccc1)c1ccc2n1CCC2C(=O)O (configuration not stated)	cell viability	%	72.2
COC1=CC=C(C(=C1)OC(C)C)C/2=N/[C@@H]([C@@H](N2C(=O)N3CCNC(=O)C3)C4=CC=C(Cl)C=C4)C5=CC=C(Cl)C=C5	cell viability	%	3.12
C[C@]12CC[C@H]3[C@@H](CCC4=CC(=O)CC[C@@H]43)[C@@H]1CC[C@@H]2OC(=O)CCc1ccccc1	cell viability	%	113
Cc1csc(-c2nnc(Nc3ccc(Oc4ncccc4-c4ccnc(N)n4)cc3)c3ccccc23)c1	cell viability	%	28.5
COc1ccc2c(c1)CN(C)CC2c1ccc(Cl)c(Cl)c1 (configuration not stated)	cell viability	%	109
C=C[C@H]1CN2CCC1C[C@@H]2C(O)c1ccnc2ccc(OC)cc12 (some centres not stated)	cell viability	%	97.5

Next compound, please.
Problem: Sample `CC(C)(O)CC(=O)NCCn1ccc2ncnc(Nc3ccc(Oc4cccc(C(F)(F)F)c4)c(Cl)c3)c21` — what was its cell viability?
Result: 23.6

###

tested on: SEM cells; assay: cell viability relative to DMSO control; higher = less cytotoxic; settings: HPLM + 10% dialyzed FBS; 48 h; 0.569 µM
measured_attribute: cell viability (%)
Numbers only, in %.

compound	cell viability [%]
Nc1ccc([S+](=O)([O-])Nc2ccnn2-c2ccccc2)cc1	109

Could you tell me cell viability for each of these compounds? They are listed below.
1. Cc1ccccc1C(=O)Nc1ccc(C(=O)N2CCCC(O)c3cc(Cl)ccc32)c(C)c1 (stereo not given)
2. Cc1csc(-c2nnc(Nc3ccc(Oc4ncccc4-c4ccnc(N)n4)cc3)c3ccccc23)c1
3. CC[C@@H]([C@H](C)O)n1ncn(-c2ccc(N3CCN(c4ccc(OCC5CO[C@@](Cn6cncn6)(c6ccc(F)cc6F)C5)cc4)CC3)cc2)c1=O (stereo not given in full)

Result:
131
45
107

###

test system: SEM cells; experiment: cell viability relative to DMSO control; higher = less cytotoxic; details: RPMI 5 mM glucose + 10% dialyzed FBS; 48 h; 1.71 µM
Answer each item with its documented cell viability.
Give bare numbers, in %.

compound	unit_of_measurement	cell viability
C=C[C@H]1CN2CCC1C[C@@H]2C(O)c1ccnc2ccc(OC)cc12 (some centres undefined)	%	127
CNC(=O)c1ccc(Nc2cc(Nc3ccccc3[S+](=O)([O-])C(C)C)c3cc[nH]c3n2)nc1	%	27
O=C(c1ccccc1)c1ccc2n1CCC2C(=O)O (centres undefined)	%	114

Please supply cell viability for each of the following items, keeping them in order.
1. COc1ccc2c(c1)[C@]13CCCCC1C(C2)N(C)CC3 (some centres undefined)
2. COC1=CC=C(C(=C1)OC(C)C)C/2=N/[C@@H]([C@@H](N2C(=O)N3CCNC(=O)C3)C4=CC=C(Cl)C=C4)C5=CC=C(Cl)C=C5
3. O=C(CCCN1CCN(c2ccc(F)cc2)CC1)NC1c2ccccc2CSc2ccccc21 (centres undefined)
4. OCC(O)C(O)C(O)CO (centres undefined)

Result:
109
27.8
113
91.5

Look at each compound and report its cell viability.
1. CCCCCCCCCCCCCC(=O)N[C@H](CO)[C@H](O)c1ccc([N+](=O)[O-])cc1
2. CNc1nc(Nc2cnn([C@H]3CCN(C4COC4)C[C@@H]3F)c2Cl)ncc1C(F)(F)F

Result:
1. 36
2. 73.6

###

system: NOMO1; test: cell viability relative to DMSO control; higher = less cytotoxic; conditions: HPLM + 10% dialyzed FBS; 48 h; 0.0632 µM
Give cell viability for every item shown.
One number for each entry, in %.

Sample answers from the record:
molecule	cell viability (%)
O=C(O)c1cc(/N=N/c2ccc([S+](=O)([O-])Nc3ccccn3)cc2)ccc1O	121
C=CC(=O)Nc1cc2c(Nc3ccc(F)c(Cl)c3)ncnc2cc1OCCCN1CCOCC1	114
CC(=O)Oc1ccccc1C(=O)Nc1ncc([N+](=O)[O-])s1	111
C[C@@H](CN1CC(=O)NC(=O)C1)N1CC(=O)NC(=O)C1	113
CCCCCCCCCCCCCC(=O)N[C@H](CO)[C@H](O)c1ccc([N+](=O)[O-])cc1	105

Hi team, please reply with cell viability for each item in this list.
1. Cc1ccc([S+](=O)([O-])OCC(=O)Nc2ccc(C(=O)O)c(O)c2)cc1
2. Oc1nc(-c2ccc(C(F)(F)F)cc2)nc2c1CSCC2
3. CCOC(=O)C(C)OC1=CC=CC2=C1\C=C/N(CC(=O)NC3=CC=C4OCCOC4=C3)C2=O (stereo not given)
4. OCC(O)C(O)C(O)CO (stereo not given)
5. CC12CC3CC(C)(C1)CC(N)(C3)C2

Result:
124
98
90.8
81.7
125

###

system: SEM cells; experiment: cell viability relative to DMSO control; higher = less cytotoxic; details: HPLM + 10% dialyzed FBS; 48 h; 0.0632 µM
Answer each item with its documented cell viability.
Give bare numbers, in %.

Quick one: give me cell viability for each item below, same order please.
1. Cc1cc2c(C(N)=O)cccc2n1-c1nc2c(c(NCc3ccccc3)n1)COCC2
2. C[C@@H]1CCO[C@H]2CN\3/C=C(/C(=O)NCC4=C(F)C=C(F)C=C4)C(=O)\C(=C3C(=O)N12)O

Result:
[93.5, 73.4]

###

tested on: SEM cells; experiment: AUC of viability dose-response curve (% viability x log10 dose units); higher = less sensitive; details: RPMI 5 mM glucose + 10% dialyzed FBS; 48 h
measured_attribute: AUC of viability dose-response curve

molecule	tested_on	AUC of viability dose-response curve
Cc1cnc(Nc2ccc(F)cc2Cl)nc1-c1c[nH]c(C(=O)N[C@H](CO)c2cccc(Cl)c2)c1	SEM cells	443
COc1ccc(C(=O)CC2(O)C(=O)Nc3c(Cl)ccc(Cl)c32)cc1 (centres undefined)	SEM cells	388

Hello, I would appreciate it if you could give AUC of viability dose-response curve for each entry below.
1. COc1cc(C(=O)N2CC[C@@H](O)[C@@H](N)C2)cc2nc(-c3cc4ccccc4n3CC3CC3)n(C)c12
2. O=C(O)CCNC(=O)c1ccc(/N=N/c2ccc(O)c(C(=O)O)c2)cc1

Result:
335
464

###

system: NOMO1; assay: cell viability relative to DMSO control; higher = less cytotoxic; conditions: RPMI 5 mM glucose + 10% dialyzed FBS; 48 h; 0.000781 µM
Please go through the items and note down their cell viability.
Numbers only, in %.

Take a look at these entries with their results.
CC1=CC(=CC(=C1C\C2=N\CCN2)C)C(C)(C)C 86.8
CN1\C=N/C2=CC=C(NC3=CC(=CC=C3C)NC(=O)C4=CC(=CC=C4)C(C)(C)C#N)C=C2C1=O 110
Cc1cccc(Nc2ccncc2[S+](=O)([O-])NC(=O)NC(C)C)c1 89.1
CC[C@H]1OC(=O)[C@H](C)C(=O)[C@H](C)[C@@H](O[C@H]2O[C@H](C)C[C@H](N(C)C)[C@H]2O)[C@](C)(OC)C[C@@H](C)C(=O)[C@H](C)[C@H]2N(CCCCn3cnc(-c4cccnc4)c3)C(=O)O[C@]12C 102
NC(=O)c1ccc(N(C(N)=O)c2c(F)cccc2F)nc1-c1ccc(F)cc1F 78.2

Would you mind listing cell viability for each of the following molecules?
1. CC(C)OC(=O)[C@H](C)N[P@](=O)(OC[C@H]1O[C@@H](N2\C=C/C(=O)NC2=O)[C@](C)(F)[C@@H]1O)OC3=CC=CC=C3
2. Cc1csc(-c2nnc(Nc3ccc(Oc4ncccc4-c4ccnc(N)n4)cc3)c3ccccc23)c1

Result:
1. 101
2. 105

Batch request: cell viability for each of the following molecules.
1. C[C@@H](CN1CC(=O)NC(=O)C1)N1CC(=O)NC(=O)C1
2. CNc1nc(Nc2cnn([C@H]3CCN(C4COC4)C[C@@H]3F)c2Cl)ncc1C(F)(F)F
3. CCOC(=O)\C1=C\[C@]2(CC)CCCN3CCC4=C([C@H]23)[N]1C5=C4C=CC=C5
4. C[C@@H]1CCO[C@H]2CN\3/C=C(/C(=O)NCC4=C(F)C=C(F)C=C4)C(=O)\C(=C3C(=O)N12)O

Result:
1. 102
2. 98.8
3. 91.8
4. 90.3

Kindly give each listed record's cell viability.
1. COC1=C(OCCCN2CCOCC2)C=CC\3=C1/N=C(/NC(=O)C4=CN=C(N)N=C4)N5CC/N=C35
2. CCCCCCCCCCCCCC(=O)N[C@H](CO)[C@H](O)c1ccc([N+](=O)[O-])cc1

Result:
[94.7, 83.2]

###

system: P12-Ichikawa; experiment: cell viability relative to DMSO control; higher = less cytotoxic; conditions: RPMI 5 mM glucose + 10% FBS; 48 h; 46.1 µM
measured_attribute: cell viability (%)
One number for each entry, in %.

compound	tested_on	quantitative_readout
O=C(CCCN1CCN(c2ccc(F)cc2)CC1)NC1c2ccccc2CSc2ccccc21 (stereo not given)	P12-Ichikawa	55.1
CCCCCNC(=O)N1CCC(CN(Cc2ccc(Cl)cc2)Cc2ccc([N+](=O)[O-])s2)C1 (stereo not given)	P12-Ichikawa	74.2
Oc1nc(-c2ccc(C(F)(F)F)cc2)nc2c1CSCC2	P12-Ichikawa	85.4
CCCCCCCCCCCCCC(=O)N[C@H](CO)[C@H](O)c1ccc([N+](=O)[O-])cc1	P12-Ichikawa	1.51

Problem: Fill in the recorded cell viability for this compound, with P12-Ichikawa as test system: COc1ccc(C(=O)CC2(O)C(=O)Nc3c(Cl)ccc(Cl)c32)cc1 (stereo not given)
Result: 12.9
